Target: C-kit kinase (recombinant N-terminal 6×His-tagged C-kit kinase domain) (Homo sapiens (Human), UniProt P10721)
Sequence (P10721 589-937): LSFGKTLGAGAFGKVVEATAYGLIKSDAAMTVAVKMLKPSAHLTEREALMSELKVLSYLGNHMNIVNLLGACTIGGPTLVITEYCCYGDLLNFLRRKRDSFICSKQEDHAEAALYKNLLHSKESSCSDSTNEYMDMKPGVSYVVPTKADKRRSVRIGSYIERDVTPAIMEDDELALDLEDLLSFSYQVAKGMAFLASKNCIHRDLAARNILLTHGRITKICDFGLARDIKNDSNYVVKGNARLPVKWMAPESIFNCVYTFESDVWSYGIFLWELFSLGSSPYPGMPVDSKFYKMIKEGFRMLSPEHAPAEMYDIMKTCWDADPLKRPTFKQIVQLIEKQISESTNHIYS
Test: C-kit kinase assay ([33P] incorporation into substrate)
Assay type: biochemical
Conditions: 100 μM ATP, 30° C., 30 minutes
Protocol: Inhibition of C-kit kinase activity by compounds disclosed herein was quantified by measuring the amount of [^33P] incorporated into the substrate in the presence of a test compound. […] The radioactivity retained on the filter membrane was measured by a luminescence counter (PerkinElmer). The results were analyzed by using linear regression software (GraphPad Prism 4; GraphPad Software Inc.).
Counter-ions that a name gives are not always drawn.
MEASUREMENT LABEL: IC50 (nM)

Answered examples (4):
COc1ccc(-c2n[nH]c3c2Cc2sc(-c4ccncc4)cc2-3)cc1 [Example-69] | 22
COc1ccc(-c2n[nH]c3c2Cc2sc(-c4cccnc4)cc2-3)cc1 [Example-70] | 24.8
COc1ccc(-c2n[nH]c3c2Cc2sc(-c4ccc(NC(=O)CN5CCCC5)nc4)cc2-3)cc1 [Example-82] | 12.2
Oc1cccc(Nc2ccc(-c3n[nH]c4c3Cc3sccc3-4)cc2)c1 [Example-10] | 139

P: Nc1ccc(-c2n[nH]c3c2Cc2sccc2-3)cc1 [Example-2, hydrochloride]
Q: COc1ccc(-c2n[nH]c3c2Cc2sc(-c4ccc(N)nc4)cc2-3)cc1 [Example-78]
Could you determine which record has the numerically smaller IC50? Candidates: P and Q Your answer should be the label attached to the chosen record.
Q

###

Where a name gives a salt, the structure may show the parent alone.
As an illustration, consider measured IC50 for molecules on FLT3 kinase (FLT3 kinase domain alone, Upstate) (Homo sapiens (Human)).

Answered examples (5):
Brc1ccc(-c2[nH]nc3c2Cc2sccc2-3)cc1 | < 100 nM
Clc1cccc(Nc2n[nH]c3c2Cc2sccc2-3)c1Cl | 100 to 499 nM
O=C1c2sccc2-c2[nH]nc(-c3ccc(Br)nc3)c21 | 500 to 1000 nM
COc1ccc(-c2n[nH]c3c2Cc2sc(-c4cccnc4)cc2-3)cc1 | < 100 nM
Clc1ccccc1Nc1n[nH]c2c1Cc1sccc1-2 | 100 to 499 nM

Entry Oc1ccc(-c2ccc(-c3n[nH]c4c3Cc3sccc3-4)cc2)cc1 : reported IC50 = ?
< 100 nM

Try this molecule next: COc1ccc(-c2ccc(-c3n[nH]c4c3Cc3sccc3-4)cc2)cc1OC
< 100 nM

Try this molecule next: CN1CCN(c2ccc(-c3n[nH]c4c3Cc3sc(-c5ccc(N)nc5)cc3-4)cc2)CC1 [Example-89, hydrochloride]
< 100 nM

Try this molecule next: COc1ccc(-c2n[nH]c3c2Cc2sc(-c4ccc(OC)c(OC)c4)cc2-3)cc1
< 100 nM

###

Molecular target: FLT3 kinase (FLT3 kinase domain alone, Upstate) (Homo sapiens (Human), UniProt P36888)
Sequence (P36888 610-943): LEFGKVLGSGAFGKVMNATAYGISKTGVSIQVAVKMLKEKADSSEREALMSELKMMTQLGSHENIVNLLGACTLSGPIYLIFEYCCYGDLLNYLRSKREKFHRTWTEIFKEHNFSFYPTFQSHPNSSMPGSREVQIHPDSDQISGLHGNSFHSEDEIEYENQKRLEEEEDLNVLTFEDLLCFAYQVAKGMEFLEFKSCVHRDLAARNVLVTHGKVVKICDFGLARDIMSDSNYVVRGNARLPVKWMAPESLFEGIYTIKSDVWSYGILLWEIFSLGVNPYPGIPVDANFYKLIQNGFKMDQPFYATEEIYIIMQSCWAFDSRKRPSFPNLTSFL
Test: FLT3 kinase assay ([33P] incorporation into substrate)
Assay type: biochemical
Details: 100 μM ATP, 30° C., 30 minutes; read-out: IC50 against FLT3
Counter-ions that a name gives are not always drawn.
Below: a set of entries, each annotated with reported IC50.

Answered examples (3):
FC(F)(F)c1cc(-c2n[nH]c3c2Cc2sccc2-3)cc(C(F)(F)F)c1 | > 1 µM
Brc1cc2c(s1)Cc1c(-c3ccccc3)n[nH]c1-2 | < 0.1 µM
FC(F)(F)Oc1ccc(Nc2n[nH]c3c2Cc2sccc2-3)cc1 | 0.5 to 1 µM

Entry Ic1ccc(Nc2n[nH]c3c2Cc2sccc2-3)cc1 : reported IC50 = ?
0.1 to 0.499 µM

Try this molecule next: Nc1ccc(-c2n[nH]c3c2Cc2sccc2-3)cc1 [Example-2, hydrochloride]
< 0.1 µM

###

Biological target: PDGFR-β kinase (recombinant N-terminal 6×His-tagged PDGFR-β kinase domain) (Homo sapiens (Human), UniProt P09619)
Sequence (P09619 600-962): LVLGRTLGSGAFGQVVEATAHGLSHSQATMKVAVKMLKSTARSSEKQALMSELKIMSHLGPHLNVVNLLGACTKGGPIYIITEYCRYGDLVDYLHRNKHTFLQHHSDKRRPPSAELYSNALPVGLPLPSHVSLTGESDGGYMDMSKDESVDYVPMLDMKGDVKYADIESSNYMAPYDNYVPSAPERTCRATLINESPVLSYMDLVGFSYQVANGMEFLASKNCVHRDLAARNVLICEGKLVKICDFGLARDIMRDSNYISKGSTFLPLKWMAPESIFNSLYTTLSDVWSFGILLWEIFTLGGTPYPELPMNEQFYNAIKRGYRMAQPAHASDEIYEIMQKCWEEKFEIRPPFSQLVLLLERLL
Assay: PDGFR-β kinase assay ([33P] incorporation into substrate)
Type: biochemical
Conditions: 30 nM ATP, 30° C., 30 minutes; read-out: IC50 (nM) PDGFRβ
Counter-ions that a name gives are not always drawn.
MEASUREMENT LABEL: IC50 (nM)

COc1ccc(-c2n[nH]c3c2Cc2sc(-c4ccc(NC(=O)CN5CCCC5)nc4)cc2-3)cc1 [Example-82] | 176
COc1ccc(-c2n[nH]c3c2Cc2sc(-c4ccncc4)cc2-3)cc1 [Example-69] | 316
COc1ccc(-c2n[nH]c3c2Cc2sc(-c4ccc(N)nc4)cc2-3)cc1 [Example-78] | 363
Nc1ccc(-c2n[nH]c3c2Cc2sccc2-3)cc1 [Example-2, hydrochloride] | 859

1: COc1ccc(-c2n[nH]c3c2Cc2sc(-c4cccnc4)cc2-3)cc1 [Example-70]
2: Oc1cccc(Nc2ccc(-c3n[nH]c4c3Cc3sccc3-4)cc2)c1 [Example-10]
Could you determine which record has the numerically smaller IC50? Candidates: 1 and 2 Your answer should be the label attached to the chosen record.
2
(2: 118 nM, 1: 479 nM)

###

Target: FLT3 kinase (FLT3 kinase domain alone, Upstate) (Homo sapiens (Human))
Test: FLT3 kinase assay ([33P] incorporation into substrate)
Assay type: biochemical
Conditions: 100 μM ATP, 30° C., 30 minutes; read-out: IC50 against FLT3
Method: Inhibition of FLT3 kinase activity by compounds disclosed herein was quantified by measuring the amount of [^33P] incorporated into the substrate in the presence of a test compound. […] The radioactivity retained on the filter membrane was measured by a luminescence counter (PerkinElmer). The results were analyzed by using linear regression software (GraphPad Prism 4; GraphPad Software Inc.).
Counter-ions that a name gives are not always drawn.
MEASUREMENT LABEL: IC50

Answered examples (5):
COc1ccc(-c2n[nH]c3c2Cc2sc(-c4cnc(N)nc4)cc2-3)cc1 [Example-79] | < 100 nM
COc1cccc(-c2n[nH]c3c2Cc2sccc2-3)c1 [Example-3] | 100 to 499 nM
Nc1ccc(-c2cc3c(s2)Cc2c(-c4ccc(N5CCOCC5)cc4)n[nH]c2-3)cn1 [Example-88, hydrochloride] | < 100 nM
C(=Cc1ccc(-c2n[nH]c3c2Cc2sccc2-3)cc1)c1ccccc1 [Example-12] | > 1000 nM
COc1ccc(-c2n[nH]c3c2Cc2sc(Br)cc2-3)cc1 [Example-34] | < 100 nM

Entry COc1ccc(Nc2n[nH]c3c2Cc2sccc2-3)cc1OC [Example-24] : reported IC50 = ?
< 100 nM

Try this compound next: COc1ccc(Nc2ccc(-c3n[nH]c4c3Cc3sccc3-4)cc2)cc1 [Example-8]
100 to 499 nM

Try this compound next: COc1ccc(-c2n[nH]c3c2C(=O)c2sc(-c4ccc(N)nc4)cc2-3)cc1 [Example-87]
< 100 nM

Try this compound next: FC(F)(F)c1ccc(Nc2n[nH]c3c2Cc2sccc2-3)cc1 [Example-35]
100 to 499 nM

###

As an illustration, consider measured IC50 for compounds on FLT3 kinase (FLT3 kinase domain alone, Upstate) (Homo sapiens (Human), UniProt P36888).
Where a name gives a salt, the structure may show the parent alone.

Nc1cccc(-c2n[nH]c3c2Cc2sccc2-3)c1 [Example-59, hydrochloride] | 100 to 499 nM
Brc1ccccc1-c1n[nH]c2c1Cc1sccc1-2 [Example-44] | > 1000 nM
Clc1ccc(Nc2n[nH]c3c2Cc2sccc2-3)cc1 [Example-32] | 100 to 499 nM
COc1ccc(Nc2n[nH]c3c2Cc2sccc2-3)cc1 [Example-23] | > 1000 nM
COc1ccc(-c2n[nH]c3c2Cc2sc(-c4ccc(N)nc4)cc2-3)cc1 [Example-78] | < 100 nM

Entry CN1CCN(c2ccc(-c3n[nH]c4c3Cc3sccc3-4)cc2)CC1 [Example-80] : reported IC50 = ?
< 100 nM

Try this compound next: c1cncc(-c2n[nH]c3c2Cc2sccc2-3)c1 [Example-16]
100 to 499 nM

Try this compound next: Oc1cccc(Nc2ccc(-c3n[nH]c4c3Cc3sccc3-4)cc2)c1 [Example-10]
< 100 nM

Try this compound next: Brc1ccc(-c2n[nH]c3c2Cc2sc(Br)cc2-3)cc1 [Example-33]
< 100 nM

###

Biological target: FLT3 kinase (FLT3 kinase domain alone, Upstate) (Homo sapiens (Human), UniProt P36888)
Structures can show the parent of a compound that is named as a salt.
Below: a set of entries, each annotated with reported IC50.

Answered examples (8):
Brc1ccc(-c2n[nH]c3c2Cc2sccc2-3)cn1 | 100 to 499 nM
COc1ccc(-c2n[nH]c3c2Cc2sc(-c4cncc(N)c4)cc2-3)cc1 [Example-91, hydrochloride] | < 100 nM
c1cc(Nc2ccc(-c3n[nH]c4c3Cc3sccc3-4)cc2)ccn1 [Example-62, hydrochloride] | < 100 nM
Nc1ccc(-c2n[nH]c3c2Cc2sccc2-3)cn1 [Example-66, hydrochloride] | < 100 nM
c1ccc(-c2n[nH]c3c2Cc2sccc2-3)cc1 | 100 to 499 nM
COc1ccc(-c2cc3c(s2)Cc2c(-c4ccc(OC)cc4)n[nH]c2-3)cc1 | < 100 nM
Clc1cccc(-c2n[nH]c3c2Cc2sccc2-3)c1 | < 100 nM
COc1ccc(-c2n[nH]c3c2Cc2sc(-c4ccc(F)c(F)c4)cc2-3)cc1 | < 100 nM

Please find the next molecule below.
Which IC50 is reported with FLT3 kinase (FLT3 kinase domain alone, Upstate) (Homo sapiens (Human), UniProt P36888) for this entry: Brc1cccc(-c2n[nH]c3c2Cc2sccc2-3)c1 ?
< 100 nM
